- Tested Target: Nav 1.5 (Homo sapiens (Human), UniProt Q14524)
- Sequence (Q14524 whole entry): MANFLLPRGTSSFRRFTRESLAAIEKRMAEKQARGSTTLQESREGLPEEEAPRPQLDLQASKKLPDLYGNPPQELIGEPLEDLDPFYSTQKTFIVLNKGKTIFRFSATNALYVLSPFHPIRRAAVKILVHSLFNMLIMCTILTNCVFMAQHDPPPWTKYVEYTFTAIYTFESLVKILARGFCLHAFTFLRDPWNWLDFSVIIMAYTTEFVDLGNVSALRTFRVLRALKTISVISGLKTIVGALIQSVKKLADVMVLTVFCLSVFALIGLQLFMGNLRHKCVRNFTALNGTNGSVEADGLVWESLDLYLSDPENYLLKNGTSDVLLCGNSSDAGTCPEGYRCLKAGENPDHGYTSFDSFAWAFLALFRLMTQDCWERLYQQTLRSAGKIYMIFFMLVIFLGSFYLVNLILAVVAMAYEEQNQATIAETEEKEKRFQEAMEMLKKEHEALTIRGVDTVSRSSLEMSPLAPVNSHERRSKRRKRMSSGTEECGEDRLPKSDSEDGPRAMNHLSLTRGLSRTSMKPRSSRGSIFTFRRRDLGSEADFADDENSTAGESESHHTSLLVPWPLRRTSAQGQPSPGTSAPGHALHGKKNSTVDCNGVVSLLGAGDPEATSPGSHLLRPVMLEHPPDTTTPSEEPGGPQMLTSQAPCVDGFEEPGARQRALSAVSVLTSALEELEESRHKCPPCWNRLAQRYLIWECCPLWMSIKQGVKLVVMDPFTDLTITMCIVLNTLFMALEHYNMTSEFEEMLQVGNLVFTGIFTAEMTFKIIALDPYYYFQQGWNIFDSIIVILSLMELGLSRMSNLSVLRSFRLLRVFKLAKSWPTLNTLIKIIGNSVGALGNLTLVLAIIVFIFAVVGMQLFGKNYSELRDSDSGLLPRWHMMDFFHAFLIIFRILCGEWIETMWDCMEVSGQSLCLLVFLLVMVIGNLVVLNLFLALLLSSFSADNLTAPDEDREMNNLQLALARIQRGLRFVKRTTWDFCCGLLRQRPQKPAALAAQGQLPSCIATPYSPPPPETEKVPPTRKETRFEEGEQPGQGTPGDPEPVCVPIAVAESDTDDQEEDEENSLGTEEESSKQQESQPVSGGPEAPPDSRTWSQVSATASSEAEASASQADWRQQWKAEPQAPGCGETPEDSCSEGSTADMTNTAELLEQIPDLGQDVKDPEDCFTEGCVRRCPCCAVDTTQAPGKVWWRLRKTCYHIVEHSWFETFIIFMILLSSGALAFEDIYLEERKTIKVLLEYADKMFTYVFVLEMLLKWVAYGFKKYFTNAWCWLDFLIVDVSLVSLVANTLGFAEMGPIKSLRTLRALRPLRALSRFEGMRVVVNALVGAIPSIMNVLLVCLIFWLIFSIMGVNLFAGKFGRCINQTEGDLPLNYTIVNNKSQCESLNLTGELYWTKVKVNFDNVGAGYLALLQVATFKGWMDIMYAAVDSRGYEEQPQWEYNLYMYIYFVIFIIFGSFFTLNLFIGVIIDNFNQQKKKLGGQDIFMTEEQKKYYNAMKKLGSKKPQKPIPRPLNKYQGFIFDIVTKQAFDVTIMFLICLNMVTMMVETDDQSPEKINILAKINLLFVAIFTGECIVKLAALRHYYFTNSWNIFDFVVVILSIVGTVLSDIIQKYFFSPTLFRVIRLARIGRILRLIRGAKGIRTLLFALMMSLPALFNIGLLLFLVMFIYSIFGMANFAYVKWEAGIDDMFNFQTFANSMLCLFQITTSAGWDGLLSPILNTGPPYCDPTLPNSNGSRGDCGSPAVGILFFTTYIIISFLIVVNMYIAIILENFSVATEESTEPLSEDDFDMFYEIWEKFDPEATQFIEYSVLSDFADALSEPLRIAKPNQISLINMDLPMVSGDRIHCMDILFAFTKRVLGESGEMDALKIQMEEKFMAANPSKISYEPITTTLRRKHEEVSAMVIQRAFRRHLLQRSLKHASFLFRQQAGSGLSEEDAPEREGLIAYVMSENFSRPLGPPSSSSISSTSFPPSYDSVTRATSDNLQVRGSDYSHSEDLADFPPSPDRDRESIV
- Assay Notes: Nav 1.5 in vitro assay, IonWorks Quattro (IWQ) population patch-clamp
- Format: cell-based
- Condition Notes: HEK 293 cells stably transfected with Nav 1.5; 26th pulse to -20 mV
Consider the cut-off 5 µM. If the recorded IC50 is strictly smaller, the label is 1 (yes); if not, the label is 0 (no).

Compound	Assigned Label
O=S(=O)(Nc1nccs1)c1ccc2c(c1)OCCN2c1ccc(C(F)(F)F)cc1C[C@@H](O)CO (single isomer, unassigned) [Example 209]	1 (yes)
O=S(=O)(Nc1nccs1)c1ccc2c(c1)OCCN2c1ccc(F)c(F)c1 [Example 84, 2,2,2-Trifluoroacetate]	1 (yes)
O=S(=O)(Nc1ncns1)c1ccc2c(c1)OCCN2c1ccc(C(F)(F)F)cc1C1=CCOCC1 [Example 25]	1 (yes)
O=S(=O)(Nc1ncns1)c1ccc2c(c1)OCCN2c1ccc(C(F)(F)F)cc1Cl [Example 2]	0 (no)
O=S(=O)(Nc1nccs1)c1ccc2c(c1)OCCN2c1cccc2cccnc12 [Example 166, 2,2,2-Trifluoroacetate]	0 (no)
COc1cc(C)c(N2CCOc3cc(S(=O)(=O)Nc4nccs4)ccc32)cn1 [Example 137]	0 (no)

Is IC50 of O=S(=O)(Nc1nccs1)c1ccc2c(c1)OCCN2Cc1ccccc1 [Example 220] strictly below 5 µM?
0 (no)

Is IC50 strictly under 5 µM for the entry Cc1cccc(N2CCOc3cc(S(=O)(=O)Nc4nccs4)ccc32)c1 [Example 75, 2,2,2-Trifluoroacetate] ?
0 (no)

Say whether its IC50 is strictly beneath 5 µM. Entry: O=S(=O)(Nc1nccs1)c1ccc2c(c1)OCCN2c1ccc(C(F)(F)F)cc1CO [Example 206]
1 (yes)

Threshold test, IC50 < 5 µM: O=S(=O)(Nc1nccs1)c1ccc2c(c1)OCCN2c1ccc(C(F)(F)F)cc1-c1cncnc1 [Example 54, 2,2,2-Trifluoroacetate]
1 (yes)

A record lists O=S(=O)(Nc1cscn1)c1ccc2c(c1)OCCN2c1ccc(C(F)(F)F)cc1C1=CCNCC1 [Example 63] . Is its IC50 below 5 µM?
1 (yes)
